- Tested on: A498 renal
- MEASUREMENT_NOTES: NCI-60 one-dose screen, 48 h
- ASSAY_SETUP: 10 µM unless noted
Compounds without any hit were thinned out: in the full panel of roughly 83,000, 20% have a hit. Active and inactive are the calls of the source. The calls were made as follows: active = growth percent below 10; inactive = the rest.
Outcome codes: active, inactive

COMPOUND: CC(C)OC1OC(OC(C)C)C(OC(C)C)OC1OC(C)C (stereo unspecified)
SYSTEM_UNDER_TEST: A498 renal
LABEL: inactive

COMPOUND: CCOC(OCC)c1cnc2nc(NC(C)=O)[nH]c(=O)c2n1
SYSTEM_UNDER_TEST: A498 renal
LABEL: inactive

COMPOUND: CCN(CC)c1ccc(/C=C2/NC(=O)NC2=O)cc1
SYSTEM_UNDER_TEST: A498 renal
LABEL: inactive

COMPOUND: C/C(=N\Nc1ccc([N+](=O)[O-])cn1)c1ccc(N)cc1
SYSTEM_UNDER_TEST: A498 renal
LABEL: inactive

COMPOUND: Cn1c(=O)c2c(nc(N/N=C/c3ccccc3Cl)n2C)n(C)c1=O
SYSTEM_UNDER_TEST: A498 renal
LABEL: inactive

COMPOUND: O=C(CCl)Nc1cc(O)c2c(c1)C(=O)c1cccc(O)c1C2=O
SYSTEM_UNDER_TEST: A498 renal
LABEL: active

COMPOUND: O=C(N/N=C/c1ccccc1O)c1ccncc1
SYSTEM_UNDER_TEST: A498 renal
LABEL: inactive

COMPOUND: CSc1nc(N)c2[nH]c(-c3cc4ccccc4[nH]c3=O)nc2n1
SYSTEM_UNDER_TEST: A498 renal
LABEL: inactive

COMPOUND: CCN(CC)Cc1cc(Nc2ccnc3ccc(OC)cc23)ccc1O
SYSTEM_UNDER_TEST: A498 renal
LABEL: inactive

COMPOUND: O=[N+]([O-])c1ccc(N=Nc2c(NNc3ccc([N+](=O)[O-])cn3)cc(S(=O)(=O)O)c3ccccc23)nc1
SYSTEM_UNDER_TEST: A498 renal
LABEL: inactive

COMPOUND: O=C(NCCN1CCCCC1)n1cc(-c2ccncc2)c(-c2ccc(Cl)c(O)c2)n1
SYSTEM_UNDER_TEST: A498 renal
LABEL: inactive

COMPOUND: CCn1c(=O)c(C(=O)NCCCO)c(O)c2ccccc21
SYSTEM_UNDER_TEST: A498 renal
LABEL: inactive

COMPOUND: CCN(CC)CCNC(=O)n1cc(-c2ccncc2)c(-c2cc(Cl)cc(OC)c2)n1
SYSTEM_UNDER_TEST: A498 renal
LABEL: inactive

COMPOUND: Clc1ccc(-c2nc(-c3cccs3)no2)cc1
SYSTEM_UNDER_TEST: A498 renal
LABEL: inactive

COMPOUND: COc1cc(NC(=O)CSc2nc3ccc(Cl)cc3c(=O)n2Cc2ccccc2)cc(OC)c1OC
SYSTEM_UNDER_TEST: A498 renal
LABEL: inactive

COMPOUND: COc1ccc(/C(C)=N/NC(=O)CSc2nc3ccccc3c(=O)n2CCc2ccc(S(N)(=O)=O)cc2)cc1
SYSTEM_UNDER_TEST: A498 renal
LABEL: active

COMPOUND: Cc1c2c(cc3c1[nH]c1ccccc13)C=NCC2
SYSTEM_UNDER_TEST: A498 renal
LABEL: inactive

COMPOUND: CCOC(=O)c1ccc2c(c1)[n+](=O)c(C(=O)c1ccc3ccccc3c1)c(C(F)(F)F)n2[O-]
SYSTEM_UNDER_TEST: A498 renal
LABEL: active

COMPOUND: COc1ccc(Cl)cc1Nc1nc(C(F)(F)F)ccc1C(=O)NN
SYSTEM_UNDER_TEST: A498 renal
LABEL: inactive

COMPOUND: CC(C)CCC(=O)[C@@H](C)[C@H]1[C@@H](OC2OCC(O)C(O)C2NS(C)(=O)=O)C[C@H]2[C@@H]3CC=C4C[C@@H](O)CC[C@]4(C)[C@H]3CC[C@]12C (stereo partly specified)
SYSTEM_UNDER_TEST: A498 renal
LABEL: active

COMPOUND: CNCCCn1c2c(c3ccc(Cl)cc3c1=O)C(=O)c1cc(OC)cnc1-2
SYSTEM_UNDER_TEST: A498 renal
LABEL: inactive

COMPOUND: Oc1ccc(-c2nnc3c4[nH]ccc4ncn23)cc1
SYSTEM_UNDER_TEST: A498 renal
LABEL: inactive

COMPOUND: CCCCCCCC/C=C/CCCCCCCC1=NC(C)(C)CN1c1ccccc1
SYSTEM_UNDER_TEST: A498 renal
LABEL: inactive

COMPOUND: Cc1nn(-c2ccccc2)c2nc3c(nc12)C1=NCCN1C(c1ccc(Cl)cc1)N3 (stereo unspecified)
SYSTEM_UNDER_TEST: A498 renal
LABEL: inactive

COMPOUND: CC(=O)O[C@H]1CC[C@]2(C)[C@H]3CC=C4[C@@H]5CC(C)(C)CC[C@]5(C(=O)OCC(COC(=O)C(Cl)Cl)(COC(=O)C(Cl)Cl)NC(=O)C(Cl)Cl)CC[C@@]4(C)[C@]3(C)CC[C@H]2C1(C)C
SYSTEM_UNDER_TEST: A498 renal
LABEL: inactive

COMPOUND: CN(C)CCCn1c(=O)c2cc([N+](=O)[O-])ccc2c2cnc3[nH]ccc3c21
SYSTEM_UNDER_TEST: A498 renal
LABEL: inactive

COMPOUND: Cc1[nH]c2ccccc2c1C1=CC(=O)C=CC1=O
SYSTEM_UNDER_TEST: A498 renal
LABEL: inactive

COMPOUND: C=C1C(=O)O[C@H]2[C@H]1CC/C(COC(=O)NCc1cn(C)c3ccccc13)=C\CC[C@@]1(C)O[C@@H]21
SYSTEM_UNDER_TEST: A498 renal
LABEL: inactive

COMPOUND: CC1(C)OC2OC3C(CN)OC(c4ccccc4)OC3C2O1 (stereo unspecified)
SYSTEM_UNDER_TEST: A498 renal
LABEL: inactive

COMPOUND: COc1cc(C)c(Cl)cc1C1=NN(c2ccc(S(N)(=O)=O)cc2)C(/C=C/c2ccccc2)C1 (stereo unspecified)
SYSTEM_UNDER_TEST: A498 renal
LABEL: inactive

COMPOUND: COc1cc(C2CC(c3ccccc3)=NN2C=O)ccc1Oc1ccnc2cc(Cl)ccc12 (stereo unspecified)
SYSTEM_UNDER_TEST: A498 renal
LABEL: inactive

COMPOUND: C#CCNc1nc(NCCNC(=O)CCl)nc(N(C)CCCCc2ccccc2)n1
SYSTEM_UNDER_TEST: A498 renal
LABEL: inactive

COMPOUND: c1ccc2c(N=NSc3ncnc4nc[nH]c34)c3ccccc3nc2c1
SYSTEM_UNDER_TEST: A498 renal
LABEL: active

COMPOUND: CCCCCCCCCCCCCCCCCC1=NCCN1CCO
SYSTEM_UNDER_TEST: A498 renal
LABEL: inactive

COMPOUND: O=C1NN(C(=O)c2ccccc2)C(c2ccc(Cl)c(Cl)c2)=C/C1=C\c1ccccc1[N+](=O)[O-]
SYSTEM_UNDER_TEST: A498 renal
LABEL: active

COMPOUND: COc1ccc(NC(=O)c2sc3c(=O)[nH]c(C(F)(F)F)nc3c2C)cc1
SYSTEM_UNDER_TEST: A498 renal
LABEL: inactive

COMPOUND: Cc1nn(-c2cccc(Cl)c2)c(C)c1N=Nc1ccc(Br)cc1
SYSTEM_UNDER_TEST: A498 renal
LABEL: inactive

COMPOUND: COc1ccc(-c2cc(C(=O)Nc3ccc(Br)cc3)nc3[nH]c(=O)sc23)cc1
SYSTEM_UNDER_TEST: A498 renal
LABEL: active

COMPOUND: COc1ccc2nc3ccccc3c(NCc3ccc(Cl)cc3)c2c1
SYSTEM_UNDER_TEST: A498 renal
LABEL: active

COMPOUND: Nc1c(Br)cc2c(c1Br)Cc1cc(Cl)ccc1-2
SYSTEM_UNDER_TEST: A498 renal
LABEL: inactive

COMPOUND: CCOC(=O)C1=C(C)NC(=S)NC1c1ccccc1 (stereo unspecified)
SYSTEM_UNDER_TEST: A498 renal
LABEL: inactive

Values compiled from PubChem BioAssay (NCI).
